assayed.target: RP1 peptide/HLA-A*02:01 complex (recombinant) (human, UniProt P16213 21-119 (Pongo pygmaeus entry))
assay.details: SPR

{"columns": ["binder", "binding result"],
 "data": [
  ["AS170036 VL1VH1-VHG108M (scFv) scFv: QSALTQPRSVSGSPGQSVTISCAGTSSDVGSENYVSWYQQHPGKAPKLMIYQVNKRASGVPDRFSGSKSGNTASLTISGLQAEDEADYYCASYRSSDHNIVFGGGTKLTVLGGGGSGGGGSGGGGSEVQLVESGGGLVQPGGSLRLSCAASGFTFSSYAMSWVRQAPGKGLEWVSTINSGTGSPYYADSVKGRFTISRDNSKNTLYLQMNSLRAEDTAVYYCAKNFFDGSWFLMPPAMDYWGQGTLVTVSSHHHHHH", "no binding"],
  ["AS170036 VL1VH1-VLE32W (scFv) scFv: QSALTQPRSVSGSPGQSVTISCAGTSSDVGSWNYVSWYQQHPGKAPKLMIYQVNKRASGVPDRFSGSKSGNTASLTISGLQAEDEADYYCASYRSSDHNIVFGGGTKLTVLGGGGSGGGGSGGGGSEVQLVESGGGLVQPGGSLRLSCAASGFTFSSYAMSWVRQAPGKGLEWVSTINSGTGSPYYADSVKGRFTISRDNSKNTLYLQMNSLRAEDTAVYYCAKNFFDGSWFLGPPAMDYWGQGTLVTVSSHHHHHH", "no binding"],
  ["AS170036 VL1VH1-VLH98A (scFv) scFv: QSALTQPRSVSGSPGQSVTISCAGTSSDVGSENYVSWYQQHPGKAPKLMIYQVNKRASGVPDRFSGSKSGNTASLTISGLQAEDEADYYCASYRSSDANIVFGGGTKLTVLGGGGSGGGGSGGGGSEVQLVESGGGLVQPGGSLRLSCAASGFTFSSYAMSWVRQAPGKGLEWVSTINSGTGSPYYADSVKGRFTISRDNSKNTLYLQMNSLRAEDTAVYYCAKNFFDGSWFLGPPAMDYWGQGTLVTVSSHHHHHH", "no binding"]
]}
